Experiment: Preliminary cytotoxicity assay (WST-8 reduction, viability and morphological observations)
Format: cell-based, human
Settings: human, normal human epidermal keratinocytes (NHEK), single replicates, 0.247 μM, 24 hours; read-out: Viability (%)
recordedMetric: viability at 24 h, 0.247 µM (%)
Numeric only. Scale: %

Sample "Oc1ccc(C=Cc2cc(O)cc(O)c2)cc1" ; viability at 24 h, 0.247 µM observed: 101

---

Experiment: Preliminary cytotoxicity assay (WST-8 reduction, viability and morphological observations)
Format: cell-based, human
Details: human, Viability (%)
recordedMetric: viability at 24 h, 2.2 µM (%)
Numeric only. Scale: %

Sample "C[N+](C)(C)[C@@H](Cc1c[nH]c(=S)[nH]1)C(=O)[O-]" ; viability at 24 h, 2.2 µM observed: 97
